- Tested on: H3255
- procedure summary: relative viability (nuclei count vs DMSO), 5 days (fraction); higher = more cells survive
- assay conditions: first compound 2 µM
Field: label. Allowed values: t (relative viability < 0.6) or f (relative viability >= 0.6).

{"compound": "Cc1csc(=NC2CCCCC2)n1/N=C/c1ccc(O)c(O)c1O [MIM1] + NC(=O)Nc1cc(-c2cccc(F)c2)sc1C(=O)N[C@H]1CCCNC1 [AZD7762] (partner 0.2 µM)", "assigned label": "f"}
{"compound": "CN1CCN(CCOc2cc(OC3CCOCC3)c3c(Nc4c(Cl)ccc5c4OCO5)ncnc3c2)CC1 [Saracatinib] + Cc1nc(Nc2ncc(C(=O)Nc3c(C)cccc3Cl)s2)cc(N2CCN(CCO)CC2)n1 [Dasatinib] (partner 0.075 µM)", "assigned label": "t"}
{"compound": "Cc1csc(=NC2CCCCC2)n1/N=C/c1ccc(O)c(O)c1O [MIM1] + COc1cc2c(Oc3ccc(NC(=O)C4(C(=O)Nc5ccc(F)cc5)CC4)cc3F)ccnc2cc1OCCCN1CCOCC1 [Foretinib] (partner 0.25 µM)", "assigned label": "f"}
{"compound": "Cc1csc(=NC2CCCCC2)n1/N=C/c1ccc(O)c(O)c1O [MIM1] + Nc1ncn([C@H]2C[C@H](O)[C@@H](CO)O2)c(=O)n1 [Decitabine] (partner 2 µM)", "assigned label": "t"}

Quick check: relative viability of CN1CCN(CCOc2cc(OC3CCOCC3)c3c(Nc4c(Cl)ccc5c4OCO5)ncnc3c2)CC1 [Saracatinib] + C[C@]1(O)C[C@@H](c2nc(-c3ccc4ccc(-c5ccccc5)nc4c3)c3c(N)nccn32)C1 [Linsitinib] (partner 1 µM) under 0.6?
t

The reported measurements were obtained from the supplement of paper PMC10307832.
